Reported IC50 values follow for various molecules
# study.target: GIPR (CHO-K1-hGIPR cells) (Homo sapiens, UniProt P48546)
# Construct: host or cells: CHO-K1
# Sequence (P48546 22-466): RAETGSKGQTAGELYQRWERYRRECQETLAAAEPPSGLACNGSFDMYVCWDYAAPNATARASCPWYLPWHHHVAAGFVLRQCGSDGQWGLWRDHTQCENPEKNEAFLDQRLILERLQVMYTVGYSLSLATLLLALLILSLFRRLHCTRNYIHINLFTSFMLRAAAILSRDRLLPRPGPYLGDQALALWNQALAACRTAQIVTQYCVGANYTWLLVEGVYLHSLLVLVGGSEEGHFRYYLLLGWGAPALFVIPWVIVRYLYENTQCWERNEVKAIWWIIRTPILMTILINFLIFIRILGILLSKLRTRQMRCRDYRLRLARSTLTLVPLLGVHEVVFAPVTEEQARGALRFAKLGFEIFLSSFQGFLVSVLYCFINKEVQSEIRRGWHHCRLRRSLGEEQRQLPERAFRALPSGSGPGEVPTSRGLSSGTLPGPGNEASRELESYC
# procedure.text: FACS binding assay
# condition.info: competition with 20 nM GIP-057, 4° C. for 1 hour, read-out: pIC50 Category (converted)
*1 amine or outer side, *2 acyl side, *3 side chain or, on linkers, in order; H or OH if unused. Where a SMILES comes first, the peptide text is derived from it. Bridges are numbered along the chain shown (N, C = ends). [ ]: non-standard residue; d: D form. The star is where a group is joined. X5 = NC(=O)[C@H](CCCCNC(=O)CN1CCN(CC(=O)O)CCN(CC(=O)O)CCN(CC(=O)O)CC1)NC(=O)CCC(=O)NCCCOCCOCCOCCCN*; Trp(5-Cl) = N[C@@H](Cc1c[nH]c2ccc(Cl)cc12)C(=O)O; Pyridine(2,6-diCH2) = c1cc(C[*:1])nc(C[*:2])c1; 1Nal = N[C@@H](Cc1cccc2ccccc12)C(=O)O; mXylylene = c1cc(C[*:1])cc(C[*:2])c1; Hyp = O=C(O)[C@@H]1C[C@@H](O)CN1; Suc = O=C(CCC(=O)[*:2])[*:1]; Thp = NC1(C(=O)O)CCOCC1

>>> reported_value("CC(=O)N[C@@H](CC(=O)O)C(=O)N[C@@H](Cc1c[nH]c2ccccc12)C(=O)N[C@@H](Cc1c[nH]c2ccc(Cl)cc12)C(=O)N1C[C@H](O)C[C@H]1C(=O)N[C@@H](CCC(=O)O)C(=O)N[C@H](CC(C)C)C(=O)N[C@H]1CSCc2cccc(n2)CSC[C@@H](C(N)=O)NC(=O)[C@H](CCC(=O)O)NC(=O)[C@H](CC(C)C)NC(=O)C2(CCOCC2)NC1=O [GIP-354] (Ac-DW[Trp(5-Cl)][Hyp]E[dL]C[Thp]LEC-NH2; linker 7-11 via Pyridine(2,6-diCH2))")
"> 1000 nM"

Form field: reported IC50 of CC[C@H](C)[C@@H]1NC(=O)[C@H](CC(C)C)NC(=O)[C@H](C)NC(=O)[C@@H](NC(=O)[C@H](CC(C)C)NC(=O)[C@H](CCC(=O)O)NC(=O)[C@@H]2CCCN2C(=O)[C@H](Cc2c[nH]c3ccccc23)NC(=O)[C@H](Cc2c[nH]c3ccccc23)NC(=O)CCC(=O)O)CSCc2cccc(n2)CSC[C@@H](C(N)=O)NC1=O [GIP-257] (Suc-WWPELCALIC-NH2; linker 6-10 via Pyridine(2,6-diCH2))
10 to 79.4 nM

Which IC50 value belongs to CC(=O)N[C@@H](CC(=O)O)C(=O)N[C@@H](Cc1c[nH]c2ccccc12)C(=O)N[C@@H](Cc1cccc2ccccc12)C(=O)N1CCC[C@H]1C(=O)N[C@@H](CCC(=O)O)C(=O)N[C@H](CC(C)C)C(=O)N[C@H]1CSCc2cccc(c2)CSC[C@@H](C(=O)NCCCOCCOCCOCCCNC(=O)CCC(=O)N[C@@H](CCCCNC(=O)CN2CCN(CC(=O)O)CCN(CC(=O)O)CCN(CC(=O)O)CC2)C(N)=O)NC(=O)[C@@H](C(C)C)NC(=O)[C@H](CC(C)C)NC(=O)[C@H](C)NC1=O [GIP-300] (Ac-DW[1Nal]PE[dL]CAL[dV]C-X5; linker 7-11 via mXylylene) ?
> 1000 nM

Which IC50 value is on record for CC[C@H](C)[C@@H]1NC(=O)[C@H](CC(C)C)NC(=O)[C@H](C)NC(=O)[C@@H](NC(=O)[C@H](CC(C)C)NC(=O)[C@H](CCC(=O)O)NC(=O)[C@@H]2CCCN2C(=O)[C@H](Cc2c[nH]c3ccccc23)NC(=O)[C@@H](Cc2c[nH]c3ccccc23)NC(=O)[C@H](CC(=O)O)NC(=O)[C@H](Cc2ccc(O)cc2)NC(=O)[C@@H](N)CCSC)CSCc2cccc(c2)CSC[C@@H](C(N)=O)NC1=O [GIP-308] (H-MYD[dW]WPELCALIC-NH2; linker 9-13 via mXylylene) ?
100 to 794 nM

What value of measured IC50 is listed for CC[C@H](C)[C@@H]1NC(=O)[C@H](C)NC(=O)[C@H](C)NC(=O)[C@@H](NC(=O)[C@H](CC(C)C)NC(=O)[C@H](CCC(=O)O)NC(=O)[C@@H]2CCCN2C(=O)[C@H](Cc2c[nH]c3ccccc23)NC(=O)[C@H](Cc2c[nH]c3ccccc23)NC(=O)[C@H](CC(=O)O)NC(=O)[C@H](Cc2ccc(O)cc2)NC(=O)[C@@H](N)CCSC)CSCc2cccc(c2)CSC[C@@H](C(N)=O)NC1=O [GIP-312] (H-MYDWWPELCAAIC-NH2; linker 9-13 via mXylylene) ?
100 to 794 nM

For the molecule CC[C@H](C)[C@@H]1NC(=O)[C@H](CC(C)C)NC(=O)[C@H](C)NC(=O)[C@@H](NC(=O)[C@H](CC(C)C)NC(=O)[C@H](C)NC(=O)[C@@H]2CCCN2C(=O)[C@H](Cc2c[nH]c3ccccc23)NC(=O)[C@H](Cc2c[nH]c3ccccc23)NC(=O)[C@H](CC(=O)O)NC(=O)[C@H](Cc2ccc(O)cc2)NC(=O)[C@@H](N)CCSC)CSCc2cccc(c2)CSC[C@@H](C(N)=O)NC1=O [GIP-335] (H-MYDWWPALCALIC-NH2; linker 9-13 via mXylylene) , what IC50 is on record?
> 1000 nM
